Catalogue of melting point values

Worked set:
>  <Compound>
C/C(Cl)=C/CCC(=O)C=P(c1ccccc1)(c1ccccc1)c1ccccc1

>  <Result>
109 to 113 °C

$$$$
>  <Compound>
COC(=O)c1ccc(-c2nc(-c3cc(C(F)(F)F)cc(C(F)(F)F)c3)co2)cc1

>  <Result>
180 to 181 °C

$$$$
>  <Compound>
COCCN1Cc2c(cnc3c(NC(=O)c4c(Cl)cccc4Cl)cccc23)C1=O

>  <Result>
246 °C

$$$$
>  <Compound>
CCc1c2nc(-c3cc(S(C)(=O)=O)ccc3OCC(C)C)[nH]c(=O)c2nn1Cc1cccnn1

>  <Result>
244 to 247 °C

$$$$
>  <Compound>
CC(=O)NC[C@H]1CN(c2ccc(N3CCC(C#N)(Nc4ccc(C#N)cc4)CC3)c(F)c2)C(=O)O1

>  <Result>
210 to 212 °C

$$$$
>  <Compound>
COc1ccc(Nc2nnc(Cc3ccncc3)c3ccccc23)cc1Cl

>  <Result>
195 to 197 °C

$$$$
>  <Compound>
NC(=O)c1ccc([N+](=O)[O-])c(C(N)=O)c1

>  <Result>
287 to 289 °C

$$$$
>  <Compound>
CS(=O)(=O)c1ccc(-c2cc(F)c(F)cc2-c2ccc3c(c2)OCO3)cc1

>  <Result>
110 to 111 °C

$$$$
>  <Compound>
COC(=O)Cc1sc(=O)[nH]c1COc1ccccc1

>  <Result>
103 °C

$$$$
>  <Compound>
COc1cc(OC)c2c(=O)[nH]c(-c3ccc(OCCO)c(-c4ccc(S(C)=O)cc4)n3)nc2c1 (stereo not given)

>  <Result>
281 to 282 °C

$$$$

Ask | Find the recorded melting point belonging to "COC(=O)Nc1ccc(-c2ncn(-c3ccc(OC(F)(F)C(F)(F)F)cc3)n2)cc1" and report it.
Reply | 183 to 184 °C

Ask | Please give the result for "CCc1nnc(CCc2ccc(NC(=O)/C=C/c3cnn(C)c3-c3ccc(F)cc3)cc2)o1" too.
Reply | 167 to 168 °C

Ask | Please give the result for "N#Cc1c2c(c3c(c1N1CCCCC1)CCc1ccccc1-3)-c1ccccc1C2" too.
Reply | 170 to 172 °C

Ask | Please give the result for CCC(=O)c1ccc2c(c1)C(C(=O)Nc1cccc(C(=O)Nc3ccccc3)c1)C(=O)N2CC (stereo not given) too.
Reply | 179 to 180 °C

Ask | Please give the result for CC(Br)c1cccc2c(-c3ccccc3)onc12 (stereo not given) too.
Reply | 73 to 77 °C

Ask | Please give the result for O=S(=O)(c1ccc(Cl)cc1)C(Cc1ccncc1)c1cc(F)ccc1F (stereo not given) too.
Reply | 129 °C

Ask | Please give the result for CCOc1cc(C(CC(C)=O)N2C(=O)c3cccc(NC(C)=O)c3C2=O)ccc1OC (stereo not given) too.
Reply | 128 to 129 °C

Ask | Please give the result for Cc1ccc(C(=O)NC(NC(=NC#N)Nc2cccnc2)C(C)(C)C)cc1 (single isomer, unassigned; (+)) too.
Reply | 188 to 189 °C

---

Quantity measured: melting point

Worked set:
>  <Molecule>
Cc1nnc2n1-c1sc(C#CCN3C(=O)c4ccccc4S3(=O)=O)cc1C(c1ccccc1Cl)=NC2

>  <Quantity measured>
melting point

>  <Result>
232 to 234 °C

$$$$
>  <Molecule>
Cc1ccc(OCC2=NCCN2)c(C)c1NS(C)(=O)=O

>  <Quantity measured>
melting point

>  <Result>
216 to 217 °C

$$$$
>  <Molecule>
CCOC(=O)N1CCc2nc3ccccc3c(O)c2CC1

>  <Quantity measured>
melting point

>  <Result>
252 °C

$$$$
>  <Molecule>
C=C1C=C(Oc2cc(C(=O)OC)ccc2OC)C1(F)F

>  <Quantity measured>
melting point

>  <Result>
60 to 62 °C

$$$$

# evaluate next
Ask | Find the recorded melting point belonging to CS(=O)CC(=N)c1ccccc1O (stereo not given) and report it.
Reply | 194 to 195 °C

---

Catalogue of melting point values

Worked set:
>  <Compound>
Nc1cc(Br)c(OC(F)(F)C(F)Cl)cc1[N+](=O)[O-] (stereo not given)

>  <Result>
90 °C

$$$$
>  <Compound>
O=C(CN1C(=O)c2ccccc2C1=O)N1CCN(C(=O)c2cc(C(F)(F)F)cc(C(F)(F)F)c2)[C@H](Cc2c[nH]c3ccccc23)C1

>  <Result>
> 220 °C

$$$$
>  <Compound>
CN1CC(CCCl)Oc2cc(Cl)ccc2C1=O (stereo not given)

>  <Result>
85 to 87 °C

$$$$
>  <Compound>
COc1cc(C=CC(CSc2ccccc2)=NO)ccc1O

>  <Result>
90 to 100 °C

$$$$
>  <Compound>
O=c1c2cc(O)ccc2[nH]c2c([N+](=O)[O-])ccc(Cl)c12

>  <Result>
> 325 °C

$$$$
>  <Compound>
Cc1ccc(NC(=O)c2ccc3oc(-c4c(C)cc(OCC(=O)N(C)C)cc4C)nc3c2)cc1C

>  <Result>
207 to 209 °C

$$$$
>  <Compound>
O=C(O)CCCCCCCc1cncc2ccccc12

>  <Result>
99 to 100 °C

$$$$
>  <Compound>
Clc1nc2ccccc2cc1C=C1CCCC1

>  <Result>
84 to 86 °C

$$$$

Ask | Find the recorded melting point belonging to "CSc1c(C(=O)O)ccc(Br)c1F" and report it.
Reply | 126 to 129 °C

Ask | Please give the result for CN1CCCC(OC(=O)Nc2ccc(Br)cc2)C1 (stereo not given) too.
Reply | 127 °C

Ask | Please give the result for "O=c1[nH]c2ccc(Cl)cc2s1" too.
Reply | 212 to 213 °C

Ask | Please give the result for "CN1CCN(c2c(Br)cc3c4c(cccc24)C(=O)N(O)C3=O)CC1" too.
Reply | 184 to 186 °C

Ask | Please give the result for O=CC1Cc2cc(C(=O)c3cccs3)c(Cl)c(Cl)c2O1 (stereo not given) too.
Reply | 162 to 164 °C

Ask | Please give the result for "CCOC(=O)C=Cc1ccc(CCNS(=O)(=O)C=Cc2ccccc2)cc1" too.
Reply | 102 to 104 °C

Ask | Please give the result for "CCC(=O)Cc1ccc(OCc2nnn[nH]2)cc1" too.
Reply | 148 to 150 °C

---

Quantity measured: melting point

Worked set:
>  <Compound>
COc1ccc(-n2nc(O)c3c(=O)c4ccc(Cl)cc4[nH]c3c2=O)cc1Cl

>  <melting point>
395 to 396 °C

$$$$
>  <Compound>
O=C(CC1c2ccccc2C(=O)N1c1ccccc1)N1CCCCC1 (stereo not drawn)

>  <melting point>
122 to 123 °C

$$$$
>  <Compound>
CC(=O)OCCOCn1cnc2c(N)nc(N)nc21

>  <melting point>
69 to 70 °C

$$$$
>  <Compound>
CCc1nc2c(N)nc3ccccc3c2n1CCCC#Cc1cccc(C(F)(F)F)c1

>  <melting point>
178 to 181 °C

$$$$
>  <Compound>
O=S(=O)(CC(O)(CI)c1ccccc1)c1ccccc1 (stereo not drawn)

>  <melting point>
98 °C

$$$$

# evaluate next
Ask | Find the recorded melting point belonging to "O=c1[nH]c2c(cc1-c1nc(-c3ccccc3)no1)CN(Cc1ccccc1)CC2" and report it.
Reply | 231 to 233 °C

---

Catalogue of melting point values

Worked set:
>  <Compound>
CCC(CC)Nc1nc(N)nc(C(C)(C)F)n1

>  <melting point>
104 to 106 °C

$$$$
>  <Compound>
CC(CO)n1cnc2c(I)ncnc21 (stereo unspecified)

>  <melting point>
193 to 194 °C

$$$$
>  <Compound>
C=CCN1C(=O)N(Cc2c(C)c(CN3C(=O)N(CC=C)C(=O)C3(C)C)c(C)c(CN3C(=O)N(CC=C)C(=O)C3(C)C)c2C)C(C)(C)C1=O

>  <melting point>
150 to 155 °C

$$$$
>  <Compound>
COC(=O)c1cccc(/C=C/c2cc3ccccc3o2)c1

>  <melting point>
98 to 100 °C

$$$$
>  <Compound>
CCCC[C@H](NC(=O)[C@H](CC(C)C)NC(=O)COc1ccc(Cl)cc1)C(=O)CSCc1ccco1

>  <melting point>
66 to 67 °C

$$$$

# evaluate next
Ask | Find the recorded melting point belonging to "COCCOc1cc2ncnc(NC3=CC(=O)C(Oc4ccc(-n5ccnc5)cc4)=CC3=O)c2cc1OCCOC" and report it.
Reply | 109 to 115 °C

---

Quantity measured: melting point (°C)
Report the figure in °C without appending any unit label.

>  <Molecule>
COc1cc(N(CC(C)C)CC(C)C)ccc1CN1C(=O)C(C)(c2ccccc2Cl)c2cc(Cl)ccc21 (stereo not given)

>  <melting point (°C)>
153

$$$$

# evaluate next
Ask | Find the recorded melting point belonging to "Cn1c2ccc(Cl)cc2c(=O)n2nc(C(=O)O)cc12" and report it.
Reply | 280
